# procedure summary: chemical genetic growth profiling, strain panel (AID 1159580);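 also: tested at 20 µM; growth read once vehicle control cultures reached saturation at 30 °C; 1 = growth at the plate median or of vehicle wells; lower values mean less growth of the strain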
# stated conditions: S. cerevisiae deletion strains, growth OD, locus YDL005C, strain med2
Screen size: about 5,500 compounds; about 2,000 (36%) were called active. Another 18% or so got no clear call; they are omitted. Rule as the data show it: active = normalized growth mostly below about 0.91 (no sharp cut-off); inconclusive = no clear call, values can overlap the other calls; inactive = mostly above about 0.92. Some of the results follow.
Labels: YES for active, NO for inactive

>>> assigned_category("CC(=O)Oc1ccc(Cl)c2cccnc12")
"YES"
>>> assigned_category("C[C@H]1[C@H]2CCC3C4CC=C5C[C@@H](N(C)C)CC[C@]5(C)C4CC[C@@]32CN1C (stereo partly drawn)")
"NO"
>>> assigned_category("Cc1ccc(/C(=C\\CN2CCCC2)c2ccccn2)cc1")
"NO"
>>> assigned_category("O=C(OC1Cc2c(O)cc(O)cc2OC1c1cc(O)c(O)c(O)c1-c1c(C2Oc3cc(O)cc(O)c3CC2OC(=O)c2cc(O)c(O)c(O)c2)cc(O)c(O)c1O)c1cc(O)c(O)c(O)c1 (stereo not drawn)")
"NO"
>>> assigned_category("CCOC(=O)c1oc2c(OC)c(O)cc(O)c2c(=O)c1-c1cc(OC)c(OC)c(OC)c1")
"NO"
>>> assigned_category("CCOP(=S)(OCC)SCn1c(=O)oc2cc(Cl)ccc21")
"NO"
>>> assigned_category("O=C(O)c1ccccc1Nc1cccc(C(F)(F)F)c1")
"YES"
>>> assigned_category("COc1cccc(/C=C/C(=O)O)c1C(C)C")
"NO"

---

Each entry below carries its recorded normalized growth.
# procedure summary: chemical genetic growth profiling, strain panel (AID 1159580)
# stated conditions: S. cerevisiae deletion strains, growth OD, locus YDL185W, strain tfp1, active compounds read low
Hit rate of the full screen: of about 5,500 compounds, about 2,000 (36%) were called active. About 18% were inconclusive and are not listed. This is one part of the list.
readout label: normalized growth

>>> result("O=[N+]([O-])c1cc([As](=O)(O)O)ccc1O")
0.978
>>> result("CCCC1O[C@@H]2CC3C4CCC5=CC(=O)C=CC5(C)C4[C@@H](O)CC3(C)[C@]2(C(=O)CO)O1 (stereo not given in full)")
1.01
>>> result("N[C@@H](Cc1ccc(O)c(O)c1)C(=O)O")
0.955
>>> result("CC(=O)Nc1cc([As](=O)(O)O)ccc1O")
0.945
>>> result("CCCCC(CC)CN1CN(CC(CC)CCCC)CC(C)(N)C1 (stereo not given)")
1.02

---

# procedure summary: chemical genetic growth profiling, strain panel (AID 1159580);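 also: tested at 20 µM; growth read once vehicle control cultures reached saturation at 30 °C; 1 = growth at the plate median or of vehicle wells; lower values mean less growth of the strain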
# stated conditions: S. cerevisiae deletion strains, growth OD, locus YGR078C, strain PAC10, active compounds read low
The whole screen tested about 5,500 compounds, of which about 2,000 (36%) were called active. Another 18% or so got no clear call; they are omitted. Some of the results follow.
Each entry below carries its recorded normalized growth.
readout label: normalized growth

>>> result("Nc1nc2ncc(C(=O)O)nc2c(=O)[nH]1")
1.01
>>> result("CN1CCN(C=Nc2ncc(C(F)(F)F)cc2Cl)CC1")
0.984
>>> result("COc1ccc(-c2c(C)nc3ccc(Cl)cc3c2-c2ccccc2)cc1OC")
0.935
>>> result("Nc1ncnc2c1ncn2C1O[C@H](COP(=O)(O)O)[C@@H](O)[C@H]1O (stereo partly specified)")
1.02
>>> result("CC(=O)N/C(=C/c1ccc2c(c1)OCO2)C(=O)O")
1
>>> result("NC1C=CC=C(C(=O)O)C1 (stereo unspecified)")
1
>>> result("Fc1cc2n[nH]nc2cc1Cl")
0.972
>>> result("Nc1ccccc1SCC(=O)Nc1c(F)cccc1F")
1
>>> result("CCCCC(CC)CN1CN(CC(CC)CCCC)CC(C)(N)C1 (stereo unspecified)")
0.469
>>> result("CCC(C(=O)Nc1ccc(C(F)(F)F)cc1)c1ccccc1 (stereo unspecified)")
0.958
>>> result("CN1C(CC(=O)c2ccccc2)CCCC1CC(O)c1ccccc1 (stereo unspecified)")
0.996
>>> result("C/C=C/c1ccc2c(c1)OCO2")
1.01
>>> result("CC(=O)c1c(O)c(C)c(O)c2c1OC1=CC(=O)C(C(C)=O)C(=O)C12C (stereo unspecified)")
1.02
>>> result("CC#CCOC(=O)c1c(C)nc2sc3c(c2c1N)CCC(O)C3 (stereo unspecified)")
0.982
>>> result("COc1cc(C(=O)NCc2ccc(OCCN(C)C)cc2)cc(OC)c1OC")
0.963
>>> result("NCC(O)c1ccc(O)c(O)c1 (stereo unspecified)")
1
>>> result("O=C(O)c1ccccc1Nc1ccccc1")
0.964
>>> result("O=C1CCCC2C3CC(CN12)[C@@H]1CCCCN1C3 (stereo partly specified)")
1.01
>>> result("Oc1ccc(Cl)c2cccnc12")
0.0502
>>> result("Nc1nc(Cl)nc2c1ncn2[C@@H]1O[C@H](COP(=O)(O)OP(=O)(O)OP(=O)(O)O)[C@H](O)C1O (stereo partly specified)")
1.01
>>> result("CCN(CC)CCOc1ccc2c(c1)C(=O)c1cc(OCCN(CC)CC)ccc1-2")
0.996
>>> result("CC(=O)O[C@H]1C[C@@H](OC(C)=O)C(C)(C)C2C[C@@H](OC(C)=O)[C@@]3(C)C4=CC(=O)O[C@@H](c5ccoc5)[C@]4(C)CCC3[C@]21C (stereo partly specified)")
1.01
>>> result("NC(=S)N/N=C\\c1ccccc1")
1.02
>>> result("Cc1cc(C)c(I)c(C)c1")
0.995
>>> result("CS(=O)(=O)CCCCN=C=S")
0.799
>>> result("CC(C)NC[C@@H](O)c1ccc(O)c(O)c1")
0.99
>>> result("Fc1cccc(Cl)c1CSc1nncn1-c1ccc(OCc2ccccc2)cc1")
0.984
>>> result("O=C(N/N=C\\c1cccs1)c1ccccc1CO")
0.994
>>> result("OC[C@@H](O)[C@@H](O[C@@H]1O[C@H](CO)[C@@H](O)[C@H](O)[C@H]1O)[C@H](O)[C@@H](O)CO")
1.02
>>> result("O=C1C=CC2=C3c4cc(O)c(O)cc4CC3(O)COC2=C1O (stereo unspecified)")
0.957
>>> result("O=[N+]([O-])/C=C/c1ccsc1")
0.0512
>>> result("Oc1c(I)cc(I)c2cccnc12")
0.0681
>>> result("CCOc1ccc(/C=C(\\C)[N+](=O)[O-])cc1OC")
0.437
>>> result("COc1cc(C2N=C(c3ccc(Cl)cc3)SC(c3ccc(Cl)cc3)=N2)cc(OC)c1OC")
1.01
>>> result("CCSc1nnc(N)s1")
1.01
>>> result("O=C(COC(=O)c1ccccc1Nc1cccc(F)c1)c1ccccc1")
0.982
>>> result("CSc1ccc(/C=C/[N+](=O)[O-])cc1")
0.0514
>>> result("Oc1c(Cl)cc(Cl)c2cccnc12")
0.0521
>>> result("COC(=O)c1ccc(-c2ccc(Cl)cc2)s1")
0.914
>>> result("CC(C)(C)C(=O)NC(=S)Nc1cccc(C(F)(F)F)c1")
0.959
>>> result("CC(C)NC[C@H](O)c1ccc(O)c(O)c1")
1.01

---

# procedure summary: chemical genetic growth profiling, strain panel (AID 1159580);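 also: tested at 20 µM; growth read once vehicle control cultures reached saturation at 30 °C; 1 = growth at the plate median or of vehicle wells; lower values mean less growth of the strain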
# stated conditions: S. cerevisiae deletion strains, growth OD, locus YJL115W, strain asf1, active compounds read low
Hit rate of the full screen: of about 5,500 compounds, about 2,000 (36%) were called active. Another 18% or so got no clear call; they are omitted. The list shows a part of the results.
Each entry below carries its recorded normalized growth.
readout label: normalized growth

>>> result("COc1ccccc1OCCNCC(O)COc1cccc2[nH]c3ccccc3c12 (stereo not given)")
1.01
>>> result("CC(=O)/C(=C\\c1ccccc1)CC(=O)O")
0.993
>>> result("C=C(NC(=O)C(=C)NC(=O)c1csc(C2=NC3c4csc(n4)C4NC(=O)c5csc(n5)C(C(C)(O)C(C)O)NC(=O)C5CSC(=N5)C(=CC)NC(=O)C(C(C)O)NC(=O)c5csc(n5)C3(CC2)NC(=O)C(C)NC(=O)C(=C)NC(=O)C(C)NC(=O)C(C(C)CC)NC2C=Cc3c(C(C)O)cc(nc3C2O)C(=O)OC4C)n1)C(N)=O (stereo not given)")
1.01
>>> result("CC1(C)C(C(Cl)Cl)C2(Cl)C(Cl)C(Cl)C1(Cl)C2(Cl)Cl (stereo not given)")
0.99
>>> result("NC(=NCCC[C@H](N)C(=O)O)NC(CCC(=O)O)C(=O)O (stereo not given in full)")
1

---

# procedure summary: chemical genetic growth profiling, strain panel (AID 1159580);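 also: tested at 20 µM; growth read once vehicle control cultures reached saturation at 30 °C; 1 = growth at the plate median or of vehicle wells; lower values mean less growth of the strain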
# stated conditions: S. cerevisiae deletion strains, growth OD, locus YLR418C, strain cdc73, active compounds read low
Out of some 5,500 compounds screened, about 2,000 (36%) were called active. Another 18% or so got no clear call; they are omitted. The list shows a part of the results.
Note: every record was labeled by where its normalized growth sits among low interval: < 0.9; middle interval: ≥ 0.9 and < 1; high interval: ≥ 1

>>> assigned_category("O=C(OC1Cc2c(O)cc(O)cc2OC1c1cc(O)c(O)c(O)c1-c1c(C2Oc3cc(O)cc(O)c3CC2OC(=O)c2cc(O)c(O)c(O)c2)cc(O)c(O)c1O)c1cc(O)c(O)c(O)c1 (centres undefined)")
"middle interval"
>>> assigned_category("C1CCN2CC3CC(CN4CCCCC34)C2C1 (centres undefined)")
"low interval"
>>> assigned_category("Nc1ncnc2c1ncn2C1O[C@H](COP(=O)(O)O)[C@@H](O)[C@H]1O (some centres undefined)")
"low interval"
>>> assigned_category("Cc1occc(=O)c1O")
"high interval"
>>> assigned_category("COC(=O)Oc1ccccc1C(=O)O")
"high interval"
>>> assigned_category("CNc1ccccc1C(=O)O")
"high interval"
>>> assigned_category("O=[N+]([O-])c1cc([As](=O)(O)O)ccc1O")
"low interval"
>>> assigned_category("Nc1nc2c(ncn2C2C[C@H](O)[C@@H](CO)O2)c(=O)[nH]1 (some centres undefined)")
"low interval"
>>> assigned_category("Cc1ccc2cc3c(ccc4ccccc43)c3c2c1CC3")
"low interval"
>>> assigned_category("O=C1C=CC2=C3c4cc(O)c(O)cc4CC3(O)COC2=C1O (centres undefined)")
"middle interval"
>>> assigned_category("Cc1c(O)c(O)cc2c1CC=C1[C@@]2(C)CC[C@@]2(C)C3C[C@](C)(C(=O)O)CC[C@]3(C)CC[C@]12C (some centres undefined)")
"low interval"
>>> assigned_category("CC(=O)OCC1(C)CCC2(C)CCC3(C)C4=CCc5c(cc(OC(C)=O)c(OC(C)=O)c5C)C4(C)CCC3(C)C2C1 (centres undefined)")
"high interval"
>>> assigned_category("Oc1c(Br)cc(Br)c2cccnc12")
"low interval"
>>> assigned_category("Oc1ccc(Cl)c2cccnc12")
"low interval"
>>> assigned_category("COc1cc2c(c(OC)c1OC)-c1ccc(O)c(=O)cc1[C@@H](NC(C)=O)CC2")
"low interval"
>>> assigned_category("Oc1c(Cl)cc(Cl)c2cccnc12")
"low interval"
>>> assigned_category("c1ccc2c(c1)cc1ccc3cccc4ccc2c1c34")
"high interval"
>>> assigned_category("Nc1ccc(S(=O)(=O)Nc2ccc(Cl)nn2)cc1")
"high interval"
>>> assigned_category("CC(=O)NCCCCCC(=O)O")
"middle interval"
>>> assigned_category("CN[C@H](CC(=O)O)C(=O)O")
"middle interval"
>>> assigned_category("O=C(O)c1ccccc1Nc1cccc(C(F)(F)F)c1")
"low interval"
>>> assigned_category("C[C@H]1[C@H]2CCC3C4CC=C5C[C@@H](N(C)C)CC[C@]5(C)C4CC[C@@]32CN1C (some centres undefined)")
"middle interval"
>>> assigned_category("O=[N+]([O-])c1ccc(O)c([N+](=O)[O-])c1")
"low interval"
>>> assigned_category("CC(=O)Oc1ccc(Cl)c2cccnc12")
"low interval"
>>> assigned_category("CCCCC(CC)CN1CN(CC(CC)CCCC)CC(C)(N)C1 (centres undefined)")
"low interval"
